Origin of values: PubChem BioAssay (NCI)

Below, each entry is listed with its recorded growth.
System: MDA-MB-231 breast
Assay: NCI-60 one-dose screen, 48 h (100 = growth as untreated, 0 = no growth, -100 = all killed)
Conditions: 10 µM unless noted
The panel holds about 83,000 compounds, 20% with a hit somewhere; the sample as a whole holds those more often. Activity calls are given as the source filed them. Rule for the calls: active = growth percent below 10; inactive = the rest.

Answered cases to consult:
Recorded growth of Cc1cc(N2CCN(CCNc3ccnc4cc(Cl)ccc34)CC2)nc(N2CCOCC2)n1 , please. 34.3% (inactive)

I am curious: what growth value has been reported for CSc1nnc(-c2cc3c([nH]c4ccccc43)c(-c3cccc(O)c3)n2)n1-c1ccccc1 ? 34.6% (inactive)

---
// query growth value for entry C=C1C(=O)O[C@H]2[C@H]1CC/C(COC(=O)/C=C\C(=O)NCc1ccc(Cn3c(=O)sn(CCI)c3=O)cc1)=C\CC[C@@]1(C)O[C@@H]21 64.6% (inactive)

Reported growth, compound Cc1cc(C(=O)Nc2ncc(Cc3cccc(C(F)(F)F)c3)s2)c2ccccc2n1 : ____ 56.4% (inactive)

Which growth is reported for this compound? COc1ccc(C(C)=O)cc1S(=O)(=O)Nc1c(N)nc(SC)[nH]c1=O 111% (inactive)

Look up growth: CS(=O)(=O)Nc1cncc(-c2ccc3ncnc(Nc4cncc(Cl)c4)c3c2)c1 77.1% (inactive)

Return reported growth; argument: O=C1/C(=C/c2ccccc2Br)COc2ccc(O)cc21 73.9% (inactive)

Entry under review: COc1c(B(O)O)cccc1-c1cc(C)c2c(ccc3[nH]ncc32)n1 . Reported growth? 22.1% (inactive)

Look up growth for this compound: CC1OC(n2c3ccccc3c3c4c(c5c6ccccc6[nH]c5c32)C(=O)N(CCN2CCCC2)C4=O)CC(O)C1O (centres undefined) 74.7% (inactive)

====

System: LOX IMVI melanoma
Test: NCI-60 one-dose screen, 48 h (100 = growth as untreated, 0 = no growth, -100 = all killed)
Settings: 10 µM unless noted
Experimental: Growth inhibition of the LOX IMVI human tumor cell line is measured as a screen for anti-cancer activity. Cells are grown in 96 well plates and exposed to the test compound for 48 hours. Compounds are tested at a single concentration, which is 10^-5 M for most compounds. The reported endpoint is percent growth (GI% or GIPRCNT), where numbers from 0 - 100% represent growth inhibition, and numbers from -100% - 0 represent cell death. For example, a value of 40 represents 60% growth inhibition. […]
The panel holds about 83,000 compounds, 20% with a hit somewhere; the sample as a whole holds those more often.
Reported growth values are given for each entry in this list.
Field format: number, assumed %, no unit text.

// known answers, use as guide
Fill in the blank: the reported growth of O=CN1N=C(c2cccc(Nc3ccnc4cc(Cl)ccc34)c2)CC1c1ccccc1 (stereo not given) is ____. 20.6

Give its growth value. Item: NS(=O)(=O)c1ccc(N=Nc2c(O)n(Cc3ccccc3)c3ccc(Cl)cc23)cc1 97.6

Please report the recorded growth for O=C(O)CCCN1C(=O)/C(=C/c2cn(-c3ccccc3)nc2-c2ccc([N+](=O)[O-])cc2)SC1=S . 46.2

Next:
Query: growth; subject: O=C1/C(=C/c2ccccc2O)CC/C1=C\c1ccccc1O 45.9

What measured growth goes with Cc1cc(=O)n(C(=O)Nc2ccccc2Cl)c2cc(O)ccc12 ? 99.1

Param item = Cc1nc2sc(C(=O)Nc3cccc(Br)c3)c(N)c2cc1C(O)c1ccccc1 (stereo not given) ; retrieve measured growth. 48

Need growth, item N#Cc1ccc2c(c1)C(=O)c1c-2n(CCCN)c(=O)c2cc([N+](=O)[O-])ccc12 -100

Which growth is listed for N=C(N)c1ccc(-c2ccc(-c3ccc(Cl)cc3Cl)s2)cc1 ? -89.3

Endpoint output: growth of Nc1ncnc2c1N=C(c1ccc(Br)cc1)CC(c1cccc(Nc3ccnc4cc(C(F)(F)F)ccc34)c1)N2 (stereo not given) . Value? 63.3

Tell me the measured growth of C#CCOc1cccc(Nc2ncnc3cc(NC(=O)C=C)ccc23)c1 , please. 3.54
